target: adrenal 19-hydroxylase; experiment: in vitro radioenzymatic assay, inhibition of adrenal 19-hydroxylase (19-hydroxylation of radiolabeled deoxycorticosterone); conditions: adrenal mitochondrial suspension, NADPH-generating system, radiolabeled deoxycorticosterone, 25°-37° C.; time-dependent; read-out: IC50 (time-dependent enzyme inhibition)
pIC50: −log10 of the molar value.
Quantity: pIC50

Return value of pIC50 for input "C#CC[C@]12CCC(=O)C=C1CC[C@@H]1[C@@H]2CC[C@]2(C)[C@@H](C(=O)CO)CC[C@@H]12" , no commentary. ~7.30
